# targetOfAssay: UniProt Q9UBT2
# assayText: SUMO activity (Table I, biological activities)
# Assay type: biochemical
# Design: key: + (less active); ++ (active); +++ (most active)
property: SUMO

Some solved cases for reference:
compound: CCOC(=O)C1=C(C(=O)N(C)C)C2C=CC1(C(Nc1ccccc1)c1ccc(CN3CCOCC3)cc1)O2 (centres unmarked)
SUMO: +

compound: CCN(CC)CCNC(=O)C1=C(C(=O)OC)C2(C(Cc3ccc(C)cc3)Nc3cc(F)cc(F)c3)C=CC1O2 (centres unmarked) [Compound 429]
SUMO: ++

compound: COC(=O)C1=C(C(=O)Nc2ccncc2)C2C=CC1(C(Cc1ccccc1)Nc1cc(F)cc(Cl)c1)O2 (centres unmarked)
SUMO: ++

compound: COC(=O)C1=C(C(=O)NCc2ccncc2)C2C=CC1(C(Cc1ccccc1)Nc1cc(F)cc(Cl)c1)O2 (centres unmarked)
SUMO: ++

compound: COC(=O)C1=C(C(=O)OC)C2(C(Cc3ccccc3)N(C(=O)C(F)(F)F)c3ccccc3)OC1C1=C2O1 (centres unmarked)
SUMO: +

compound: COC(=O)C1=C(C(=O)OC)C2(C(Cc3ccc(Cl)cc3Cl)Nc3ccccc3)C=CC1O2 (centres unmarked)
SUMO: +++

compound: CCOc1cccc(NC(Cc2ccccc2)C23C=CC(O2)C(C(=O)NCCN(C)C)=C3C(=O)OC)c1 (centres unmarked)
SUMO: +++

compound: COC(=O)C1=C(C(=O)Nc2ccccc2C)C2C=CC1(C(Cc1ccccc1)Nc1ccccc1)O2 (centres unmarked)
SUMO: ++

compound: Cc1ccc(S(=O)(=O)C2=CC3(C4OCCO4)C=CC2O3)cc1 (centres unmarked)
SUMO: ++

compound: COC(=O)C1=C(C(=O)OC)C2(C(Cc3ccccc3Cl)Nc3ccc(F)cc3)C=CC1O2 (centres unmarked)
SUMO: ++

// query What value of measured SUMO is listed for CCOC(=O)C1=C(C(=O)Nc2ccc(Cl)cc2)C2C=CC1(C(Nc1ccccc1)c1ccc(CN3CCOCC3)cc1)O2 (centres unmarked) ?
// result ++

// query CCOC(=O)C1=C(C(=O)Nc2ccc(Oc3ccccc3)cc2)C2C=CC1(C(Nc1ccccc1)c1ccc(CN3CCOCC3)cc1)O2 (centres unmarked) ?
// result +

// query COC(=O)C1=C(C(=O)OC)C2(C(Nc3ccccc3)c3cccc4ccccc34)C=CC1O2 (centres unmarked) ?
// result +++

// query COC(=O)C1=C(C(=O)Nc2ccc(OC)cc2)C2C=CC1(C(Nc1ccccc1)C1CCC1)O2 (centres unmarked) ?
// result ++

// query COC(=O)C1=C(C(=O)Nc2ccc(CN(C)C)c(F)c2)C2C=CC1(C(Cc1ccccc1)Nc1ccccc1)O2 (centres unmarked) ?
// result ++

// query COC(=O)C1=C(C(=O)Nc2ccc(OCCN(C)C)cc2)C2OC1(C(Cc1ccccc1)Oc1ccccc1)C1OC21 (centres unmarked) ?
// result +

// query COC(=O)C1=C(C(=O)OC)C2(C(Cc3ccc(CC4CCOCC4)cc3)Nc3ccccc3)C=CC1O2 (centres unmarked) ?
// result ++

* * *

# targetOfAssay: SUMO (Homo sapiens, UniProt Q9UBT2)
# Sequence (Q9UBT2 1-640): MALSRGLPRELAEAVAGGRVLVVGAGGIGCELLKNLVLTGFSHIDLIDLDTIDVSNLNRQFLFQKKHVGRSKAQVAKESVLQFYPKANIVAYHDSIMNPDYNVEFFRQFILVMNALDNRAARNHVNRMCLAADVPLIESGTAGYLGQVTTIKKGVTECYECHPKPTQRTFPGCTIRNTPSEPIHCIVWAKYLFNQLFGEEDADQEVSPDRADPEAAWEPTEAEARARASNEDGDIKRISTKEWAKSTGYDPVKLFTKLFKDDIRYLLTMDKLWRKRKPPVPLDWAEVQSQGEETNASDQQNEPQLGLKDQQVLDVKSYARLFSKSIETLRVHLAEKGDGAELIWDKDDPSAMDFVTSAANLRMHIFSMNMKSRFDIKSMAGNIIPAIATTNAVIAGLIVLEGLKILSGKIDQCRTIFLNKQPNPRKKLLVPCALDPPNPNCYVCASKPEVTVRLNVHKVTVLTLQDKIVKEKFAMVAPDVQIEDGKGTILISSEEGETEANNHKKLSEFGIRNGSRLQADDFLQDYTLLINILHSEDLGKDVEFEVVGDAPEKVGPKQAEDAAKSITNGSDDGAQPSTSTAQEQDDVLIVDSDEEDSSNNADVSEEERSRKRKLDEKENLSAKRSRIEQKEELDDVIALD
# Sequence (Q9UBE0 1-346 partner): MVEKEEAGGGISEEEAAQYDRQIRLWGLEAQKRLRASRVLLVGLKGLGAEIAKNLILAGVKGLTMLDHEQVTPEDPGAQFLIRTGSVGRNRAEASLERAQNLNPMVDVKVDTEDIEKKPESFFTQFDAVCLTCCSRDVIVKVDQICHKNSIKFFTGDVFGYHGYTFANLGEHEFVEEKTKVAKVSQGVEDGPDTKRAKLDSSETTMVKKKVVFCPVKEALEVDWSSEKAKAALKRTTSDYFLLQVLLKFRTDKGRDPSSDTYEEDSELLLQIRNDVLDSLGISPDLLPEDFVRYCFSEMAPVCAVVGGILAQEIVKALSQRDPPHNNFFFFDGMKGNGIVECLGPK
# assayText: SUMO activity (Table I, biological activities)
# Type: biochemical
# Design: key: + (less active); ++ (active); +++ (most active)

compound: COC(=O)C1=C(C(=O)OC)C2(C(Cc3cccc(-c4ccccc4)c3)Nc3ccccc3)C=CC1O2 (stereo not drawn) [Compound 682]
SUMO: +
--
compound: COC(=O)C1=C(C(=O)N2CCN(C)CC2)C2C=CC1(C(Cc1ccccc1)Nc1ccccc1)O2 (stereo not drawn) [Compound 164]
SUMO: +
--
compound: COC(=O)C1=C(C(=O)Nc2ccc(N3CCN(C)CC3)cc2)C2C=CC1(C(Cc1ccccc1)Nc1ccccc1)O2 (stereo not drawn) [Compound 291]
SUMO: ++
